Hello, the source for this data is PubChem BioAssay AID693, in case you need it.

Molecular target: Serine/threonine-protein kinase PLK1 (Homo sapiens) (UniProt P53350)
Sequence (P53350 whole entry, looked up, the tested form may be a part): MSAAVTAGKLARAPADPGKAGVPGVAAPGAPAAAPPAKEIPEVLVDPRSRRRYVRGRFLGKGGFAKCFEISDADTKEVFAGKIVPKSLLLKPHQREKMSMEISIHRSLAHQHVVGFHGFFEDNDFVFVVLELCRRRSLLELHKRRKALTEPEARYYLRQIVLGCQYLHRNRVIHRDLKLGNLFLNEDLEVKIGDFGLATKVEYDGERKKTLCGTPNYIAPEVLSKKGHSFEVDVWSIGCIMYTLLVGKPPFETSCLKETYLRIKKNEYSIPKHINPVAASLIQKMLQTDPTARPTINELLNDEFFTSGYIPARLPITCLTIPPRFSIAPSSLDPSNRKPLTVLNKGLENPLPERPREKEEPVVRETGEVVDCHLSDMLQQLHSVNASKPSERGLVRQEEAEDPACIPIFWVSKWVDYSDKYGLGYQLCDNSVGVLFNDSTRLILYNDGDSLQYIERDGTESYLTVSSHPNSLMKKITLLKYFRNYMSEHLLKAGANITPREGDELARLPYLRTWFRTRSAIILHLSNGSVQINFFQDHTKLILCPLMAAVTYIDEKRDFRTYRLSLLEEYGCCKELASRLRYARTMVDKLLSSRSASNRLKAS
Experiment: Plk1 polo box domain binding inhibitors, primary screen, biochemical, fluorescence polarization (AID 693)
Conditions: Plk1 PBD phosphopeptide binding, stronger effect = higher value,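 tested at about 20 µM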
The whole screen tested about 97,000 compounds, of which about 130 (0.13%) were called active. This is one part of a sample in which actives are shown more often than they occur.
test_readout: inhibition (%)
Give just the number in %; leave the unit off.

With Serine/threonine-protein kinase PLK1 (Homo sapiens) (UniProt P53350) as the test system, O=C(Nc1cc2c3c(c1)C1CCCC1CN3CC1CCCC21)c1ccc([N+](=O)[O-])cc1 (stereo not given) showed inhibition of -24.1

The recorded inhibition with Serine/threonine-protein kinase PLK1 (Homo sapiens) (UniProt P53350) for O=C(CCCn1c(SCC(=O)c2ccccc2)nc2ccccc2c1=O)NCC1CCCO1 (stereo not given) was 8.37

Item Cc1c(NC(=O)CCCOc2ccccc2)cccc1[N+](=O)[O-] was tested on Serine/threonine-protein kinase PLK1 (Homo sapiens) (UniProt P53350); the reported inhibition is 6.93

Summary: CN(C)c1ccnc(Oc2ccc(F)cc2)c1C#N , Serine/threonine-protein kinase PLK1 (Homo sapiens) (UniProt P53350), inhibition = -3.95

Tested system Serine/threonine-protein kinase PLK1 (Homo sapiens) (UniProt P53350); inhibition recorded for O=c1c2c(nc3nc[nH]n13)CCC2 was 7.34

Observed inhibition on Serine/threonine-protein kinase PLK1 (Homo sapiens) (UniProt P53350), entry O=C(Nc1ccc2sc3ccccc3c(=O)c2c1)c1ccccc1Cl , equals 6.33

// returns inhibition for Cc1ccccc1NC(=O)c1ccccc1NS(=O)(=O)c1cccc2cccnc12 with Serine/threonine-protein kinase PLK1 (Homo sapiens) (UniProt P53350); value = 4.72

Summary: COC(=O)c1ccc(OCC(=O)NC(C)(C)C)cc1 , Serine/threonine-protein kinase PLK1 (Homo sapiens) (UniProt P53350), inhibition = 5.58

Summary line: Cc1cccc(COc2ccccc2/C=N/Nc2ccc([N+](=O)[O-])cc2)c1 , Serine/threonine-protein kinase PLK1 (Homo sapiens) (UniProt P53350), reported inhibition = 0.38

Known value: Serine/threonine-protein kinase PLK1 (Homo sapiens) (UniProt P53350) inhibition of the compound CC(=O)Nc1ccccc1OC(=O)N1CCOCC1 equals 7.14

The reported inhibition value, Serine/threonine-protein kinase PLK1 (Homo sapiens) (UniProt P53350), for O=C(CNS(=O)(=O)c1ccc(Br)s1)N1CCN(C(=O)c2ccco2)CC1 reads -13

Hey, Serine/threonine-protein kinase PLK1 (Homo sapiens) (UniProt P53350) data for O=[N+]([O-])c1cccc(-c2nnc3c4ccccc4c4ccccc4n23)c1 : inhibition came out at -7.67

The observed inhibition for Oc1ccc2ccc3cccc[n+]3c2c1 when tested with Serine/threonine-protein kinase PLK1 (Homo sapiens) (UniProt P53350) stands at 61.2

Log: Serine/threonine-protein kinase PLK1 (Homo sapiens) (UniProt P53350), compound CCOc1cc(/C=C2/N=C(c3ccc(C(C)(C)C)cc3)OC2=O)cc(Cl)c1OS(C)(=O)=O , inhibition = -6.59

Entry N#Cc1ccccc1CN1C(=O)S/C(=C/c2cccn2-c2cccc(C(=O)O)c2)C1=O ; assay system Serine/threonine-protein kinase PLK1 (Homo sapiens) (UniProt P53350); inhibition recorded at -6.67

// inhibition (Serine/threonine-protein kinase PLK1 (Homo sapiens) (UniProt P53350)) for O=C1/C(=C\Nc2ccccc2)CCN1c1ncccn1 = 13.5

The reported Serine/threonine-protein kinase PLK1 (Homo sapiens) (UniProt P53350) inhibition of Cc1nn(C)cc1C(=O)NNC(=S)Nc1ccc(Cl)cc1 is -11.1

Here Clc1ccc(-c2cc(COc3ccccc3)no2)cc1Cl was tested on Serine/threonine-protein kinase PLK1 (Homo sapiens) (UniProt P53350), and its inhibition came to -15.4

Item CC(=O)c1ccc2c(ccc3ccccc32)c1 was tested on Serine/threonine-protein kinase PLK1 (Homo sapiens) (UniProt P53350); the reported inhibition is -3.5

GET /values?item= COc1ccc(C2=NOC3(CC(=O)N(c4ccc(C)cc4)C3=O)C2)cc1 (stereo not given) &system= Serine/threonine-protein kinase PLK1 (Homo sapiens) (UniProt P53350) returns inhibition: 13.3

Summary line: O=C(NCCc1ccccc1)/C(=C\c1ccc([N+](=O)[O-])cc1)NC(=O)c1ccccc1 , Serine/threonine-protein kinase PLK1 (Homo sapiens) (UniProt P53350), reported inhibition = 55.4

# lookup: CC(C)CCNC(=O)Cn1c(=O)oc2cc(S(=O)(=O)N3CC(C)CC(C)C3)ccc21 (stereo not given) on Serine/threonine-protein kinase PLK1 (Homo sapiens) (UniProt P53350), inhibition = -16.6

Serine/threonine-protein kinase PLK1 (Homo sapiens) (UniProt P53350) data for COc1ccc(S(=O)(=O)Nc2ccc3oc(C)c(C(C)=O)c3c2)cc1 ; its inhibition: -17.3

The measured inhibition that COc1ccc(-c2nn(-c3ccccc3)cc2C(=O)Nc2nccs2)cc1OC showed for Serine/threonine-protein kinase PLK1 (Homo sapiens) (UniProt P53350) is 3.37

Noted inhibition for COc1ccccc1C(=O)Nc1ccc(NC(=O)c2ccco2)c(C)c1 , tested on Serine/threonine-protein kinase PLK1 (Homo sapiens) (UniProt P53350): -21.6

Summary: Cc1nc2ccccc2c(-c2ccccc2)c1C(=O)c1ccccc1 , Serine/threonine-protein kinase PLK1 (Homo sapiens) (UniProt P53350), inhibition = -0.63

So the reported inhibition for CNC(=O)/C(=C\C=C\c1ccccc1)NC(=O)c1ccc([N+](=O)[O-])cc1 , on Serine/threonine-protein kinase PLK1 (Homo sapiens) (UniProt P53350), turned out to be -9.26

Lab note: compound Cc1cccc(N(C(=O)c2ccc(CN3CCOCC3)o2)C(C(=O)NC2CCCCC2)c2ccc(F)cc2)c1 (stereo not given) tested on Serine/threonine-protein kinase PLK1 (Homo sapiens) (UniProt P53350); recorded inhibition was 10.4

Observed inhibition on Serine/threonine-protein kinase PLK1 (Homo sapiens) (UniProt P53350), entry Cc1nc2cc(NC(=O)NCc3ccccc3)ccc2o1 , equals -8.52

Entry O=C(CCc1ccccc1)NCc1cccnc1 : inhibition on Serine/threonine-protein kinase PLK1 (Homo sapiens) (UniProt P53350) = 22.9

The recorded inhibition with Serine/threonine-protein kinase PLK1 (Homo sapiens) (UniProt P53350) for CCc1ccc2nc3sc(C(=O)Nc4nnc(CC)s4)c(N)c3cc2c1 was -67.7

Form field inhibition for item CCOC(=O)C1(S(=O)(=O)c2ccc(Cl)cc2)CCN(Cc2ccccc2)CC1 on Serine/threonine-protein kinase PLK1 (Homo sapiens) (UniProt P53350): -3.07

Record O=C(N/N=C/c1ccc(O)c(O)c1)C1c2ccccc2Oc2ccccc21 has Serine/threonine-protein kinase PLK1 (Homo sapiens) (UniProt P53350) inhibition equal to -30.1

The reported Serine/threonine-protein kinase PLK1 (Homo sapiens) (UniProt P53350) inhibition of Cc1ccc(NC(=O)N2CCC(O)(c3cccnc3)CC2)cc1 is 2.21

Bench note, Serine/threonine-protein kinase PLK1 (Homo sapiens) (UniProt P53350): entry CCC(=O)c1c[nH]c(C(=O)NCC2CCCO2)c1 (stereo not given) , its inhibition = 8.77

Value sought: inhibition, system Serine/threonine-protein kinase PLK1 (Homo sapiens) (UniProt P53350), item O=C(N/N=C/c1ccc(O)cc1)/C(=C/c1ccc([N+](=O)[O-])cc1)NC(=O)c1ccccc1 . Result: -6.05

Form field inhibition for item COCCOC(=O)c1sc(=S)n(CCOC)c1N on Serine/threonine-protein kinase PLK1 (Homo sapiens) (UniProt P53350): -9.37

Bench note, Serine/threonine-protein kinase PLK1 (Homo sapiens) (UniProt P53350): COCCCNCC(=O)Nc1sc(C)c(C)c1C(=O)OC , inhibition reads -27.8

Short answer on Serine/threonine-protein kinase PLK1 (Homo sapiens) (UniProt P53350) for CCN(CC)CCN1C(=O)C(=O)/C(=C(/O)c2cnn(-c3ccccc3)c2C)C1c1cccs1 (stereo not given) , inhibition: -7.79

Lab entry: Serine/threonine-protein kinase PLK1 (Homo sapiens) (UniProt P53350) assay, compound COC(=O)c1ccc(Cc2ccccc2)o1 , inhibition = -14.5

Value (inhibition, Serine/threonine-protein kinase PLK1 (Homo sapiens) (UniProt P53350)) for record CC1CCC(N2CC(=O)N(Cc3ccc4c(c3)OCO4)C(c3ccc(F)cc3)C2=O)CC1 (stereo not given) = -19

Form: item O=C(CCc1ccc(S(=O)(=O)NC2CCCCC2)cc1)NCc1ccccc1 ; test system Serine/threonine-protein kinase PLK1 (Homo sapiens) (UniProt P53350); inhibition: 10.4

Here COC(=O)c1nc2ccccc2s1 was tested on Serine/threonine-protein kinase PLK1 (Homo sapiens) (UniProt P53350), and its inhibition came to -0.85

// returns inhibition for N#CC1=C(N)N(c2ccc(F)cc2)C(=O)C1 with Serine/threonine-protein kinase PLK1 (Homo sapiens) (UniProt P53350); value = 5.37

Recorded inhibition for Cc1nc(-c2ccccc2)sc1-c1nc(-c2ccccc2)ncc1S(=O)(=O)c1ccccc1 on Serine/threonine-protein kinase PLK1 (Homo sapiens) (UniProt P53350) was -7.34
